Can you tell me pIC50 for the items I'm about to list?
test: Displacement of [3H]-3-hydroxycyclopent-1-enecarboxylic acid from GHB binding site in Sprague-Dawley rat cerebral cortex after 1 hr by scintillation counting analysis; assay type: tissue-based
One number for each entry, as −log10 of the molar value.

O=C(O)CCCO [OXYBATE]	5.94

Could you tell me pIC50 for each of these compounds? They are listed below.
1. O=C([O-])C1=CC(O)CC1.[Na+] (stereo not drawn)
2. O=C(O)C1=CC(O)CC1 (racemic)

[reply]
1: 6.94; 2: 7.14

----------
experiment: Ratio of drug level in brain to plasma in C57 mouse at 10 mg/kg, po after 30 mins by LC-MS/MS analysis; assay type: ADME, organism-based; design: dose 10 mg/kg, route oral; details: read-out: BPR
ENDPOINT_NAME: Kp at 0.5 h
Answers are plain numbers.

Consider the worked cases shown below.
O=C(O)C1=CC(O)CC1 (racemic)	0.37
O=C(O)CCCO [OXYBATE]	0.2

Field: next molecule
[ask] Given the molecule O=C(O)/C=C1\CCCc2ccccc2C1O (stereo not drawn) , what is its reported Kp at 0.5 h?
[reply] 0.38
